Value source: ChEMBL document CHEMBL1150678

# System: Pseudomonas aeruginosa
# test-details: Antimicrobial activity against Pseudomonas aeruginosa 1592E isolate after 18 hrs
# Type: functional
Below, each entry is listed with its recorded MIC.

molecule	MIC
CC(/C=C/[C@@H](C)[C@H]1C[C@@H](O)[C@H]2[C@@H]3C[C@H](O)[C@H]4C[C@@H](O)CC[C@]4(C)[C@H]3CC[C@@]21C)CO (stereo not given in full)	> 25 µg/mL
C=C(CC[C@@H](C)[C@H]1C[C@@H](O)[C@H]2[C@@H]3C[C@H](O)[C@H]4C[C@@H](O)CC[C@]4(C)[C@H]3CC[C@@]21C)[C@H](C)CO	> 25 µg/mL
C=C(CC[C@@H](C)[C@H]1C[C@@H](O)[C@@H]2[C@]1(C)CC[C@@H]1[C@@]3(C)CC[C@H](O)C[C@@H]3[C@@H](O)C[C@]12O)[C@H](C)CO	> 25 µg/mL
C=C(CC[C@@H](C)[C@H]1C[C@@H](O)[C@@H]2[C@]1(C)CC[C@@H]1[C@@]3(C)CC[C@H](O)[C@H](O)[C@@H]3[C@@H](O)C[C@]12O)[C@H](C)CO	> 25 µg/mL
C[C@@H](O)[C@H]1C(=O)N2C(C(=O)O)=C(S[C@@H]3CN[C@H](C(=O)N(C)C)C3)[C@H](C)[C@H]12	0.2 µg/mL

###

# System: Streptococcus pyogenes
# test-details: Antimicrobial activity against Streptococcus pyogenes 77A isolate after 18 hrs
# Type: functional
This listing pairs compounds with measured MIC.
value-kind: MIC

>>> df
                                 cpd_smiles                  target      result
0  C=C(CC[C@@H](C)[C@H]1C[C@@H](O)[C@H]2[C@@H]3C[C@H](O)[C@H]4[C@@H](O)[C@@H](O)CC[C@]4(C)[C@H]3CC[C@@]21C)[C@H](C)CO  Streptococcus pyogenes  > 25 µg/mL
1  C=C(CC[C@@H](C)[C@H]1C[C@H](O)[C@H]2[C@@H]3C[C@@H](O)[C@H]4C[C@@H](O)CC[C@]4(C)[C@H]3CC[C@@]21C)[C@H](C)CO  Streptococcus pyogenes  > 25 µg/mL
2  C=C(CC[C@@H](C)[C@H]1C[C@@H](O)[C@H]2[C@@H]3C[C@H](O)[C@H]4C[C@@H](O)CC[C@]4(C)[C@H]3CC[C@@]21C)[C@H](C)CO  Streptococcus pyogenes  > 25 µg/mL
